Reference source for all entries: ChEMBL document CHEMBL3431459

// reported Papp for each item listed
Experiment: SUPPLEMENTARY: PAMPA permeability assay
Assay type: physicochemical
Details: read-out: Permeability
Kindly provide the numeric value in ×10⁻⁶ cm/s only, without the unit symbol.

Please review the entries below; each comes with its answer.
[
  {
    "compound_smiles": "COc1ccc(Cl)cc1S(=O)(=O)N(C)c1cc(C(=O)Nc2ncc(CC(=O)O)s2)cc2c1OCO2",
    "Papp [×10⁻⁶ cm/s]": 2.22
  },
  {
    "compound_smiles": "Nc1ncc(Cl)c(-c2nc([C@H]3CCCCN3C(=O)COc3ccccc3)no2)n1",
    "Papp [×10⁻⁶ cm/s]": 3.59
  },
  {
    "compound_smiles": "CCOC(=O)c1cn2ccc(-c3noc([C@H]4CCCCN4C(=O)COc4ccccc4)n3)cc2n1",
    "Papp [×10⁻⁶ cm/s]": 1.99
  },
  {
    "compound_smiles": "COc1ccc2[nH]cc(C(=O)COc3ccncc3)c2c1",
    "Papp [×10⁻⁶ cm/s]": 0.02
  },
  {
    "compound_smiles": "O=C1CN(c2cccc(-c3nc([C@H]4CCCCN4C(=O)COc4ccccc4)no3)c2)C(=O)N1",
    "Papp [×10⁻⁶ cm/s]": 3.43
  }
]

Value of Papp reported for the compound `COc1ccc(Cl)cc1S(=O)(=O)c1cn(CC(N)=O)c2ccc(C(=O)Nc3ccccc3)cc12` is 0.3

Value of Papp reported for the compound `COc1ccc(Cl)cc1S(=O)(=O)N1CCOc2ccc(C(=O)Nc3ccc(C(=O)O)c(Cl)c3)cc21` is 1.45

Value of Papp reported for the compound `O=C(COc1ccccc1)N1CCCC[C@@H]1c1nc(-c2ccccc2F)n[nH]1` is 4.79

Value of Papp reported for the compound `O=C(COc1ccccc1)N1CCCC[C@@H]1c1noc(-c2ccc3[nH]nnc3c2)n1` is 2.14

Value of Papp reported for the compound `O=C(COc1ccccc1)N1CCCC[C@@H]1c1nc(-c2ccccn2)cs1` is 9.04

Value of Papp reported for the compound `CC(C)C(=O)Nc1cccc(-c2n[nH]c([C@H]3CCCCN3C(=O)COc3ccccc3)n2)c1` is 2.6

Value of Papp reported for the compound `O=C(COc1ccccc1)N1CCCC[C@@H]1c1noc(-c2ccc(-n3cnnn3)cc2)n1` is 1.7

Value of Papp reported for the compound `COc1ccc(Cl)cc1S(=O)(=O)N1CCSc2ccc(C(=O)Nc3ccc(CC(=O)O)cc3)cc21` is 5.1

Value of Papp reported for the compound `COc1ccc(Cl)cc1S(=O)(=O)N1CCOc2c(C)cc(C(=O)Nc3nc(CC(=O)O)cs3)cc21` is 1.88

Value of Papp reported for the compound `Cc1cc(C)cc(S(=O)(=O)c2nn(C)c3ccc(C(=O)Nc4ccc(C(=O)O)cc4)cc23)c1` is 0.76

Value of Papp reported for the compound `COc1ccc(Cl)cc1S(=O)(=O)N1COc2c(F)cc(C(=O)Nc3nc(CC(=O)O)cs3)cc21` is 2.24

Value of Papp reported for the compound `O=C(COc1ccccc1)N1CCCC[C@@H]1c1nc(-c2ccc3nccn3c2)no1` is 6.32

Value of Papp reported for the compound `COc1ccc(Cl)cc1S(=O)(=O)N1CCCCc2ccc(C(=O)Nc3ccc(C(=O)O)cc3)cc21` is 2.9

Value of Papp reported for the compound `O=C(COc1ccccc1)N1CCCC[C@@H]1c1nc(-c2cccs2)n[nH]1` is 2.69
